Test: HILIC, Waters ACQUITY UPLC BEH Amide, 100 × 2.1 mm, 1.7 µm; A: water + 0.125% formic acid + 10 mM ammonium formate; B: 5% water + 95% acetonitrile + 0.125% formic acid + 10 mM ammonium formate; gradient (min/%B) 0/100 2/100 7.7/70 9.5/40 10.25/30 12.75/100 17/100
Conditions: stereoisomer not certain
metric: LC retention time (min)
State the answer as a number, implicitly in min.

// sample CCOC(=O)c1cncn1C(C)c1ccccc1 (configuration not stated) [Etomidate] , its LC retention time was 0.98

Per the records, this compound ( CC=CC(=O)N(CC)c1ccccc1C ) has LC retention time equal to 0.97

LC retention time measured on Oc1ccc2c3c1OC1c4[nH]c5ccccc5c4CC4(O)C(C2)N(CC2CC2)CCC314 (configuration not stated) = 4.45

GET /value?item= CCCc1nc(C(C)(C)O)c(C(=O)O)n1Cc1ccc(-c2ccccc2-c2nn[nH]n2)cc1 &field=LC retention time returns 4.76

Per the record, COc1cc(C)nc(-n2nc(C)cc2OC)n1 [Mepirizole] has LC retention time of 1.03

Note to self: LC retention time recorded for CC12CCC3C4CCC(=O)C=C4CCC3C1CCC2O (configuration not stated) was 1.06

Lab note: measured LC retention time of O=C1CN=C(c2ccccc2)c2cc(Cl)ccc2N1CC1CC1 was 1.07

Reported LC retention time for COc1ccc2[nH]cc(CCO)c2c1 was 1.18

According to the records, this compound CCCC(N)C(=O)O (configuration not stated) displays LC retention time of 4.89

// recorded LC retention time for O=C1Nc2ccc(Cl)cc2C(c2ccccc2Cl)=NC1O (configuration not stated) : 1.33

Consider CC(=O)OCC(N)C(=O)O (configuration not stated) . Its measured LC retention time is 7.67

Please fill in: LC retention time reported for CNC(Cc1ccc(O)cc1)C(=O)O (configuration not stated) = 6.79

Value of LC retention time reported for the compound COC1C(O)C(CO)OC1n1ccc(N)nc1=O (configuration not stated) is 5.02

LC retention time for Cc1cn(C2OC(CO)C(O)C2O)c(=O)[nH]c1=O (configuration not stated) is 4.19

Input Cc1cn(C2OC(CO)C(O)C2O)c(=O)nc1N (configuration not stated) . Output LC retention time: 6.39

The value of LC retention time measured for the compound CC(O)C(O)C1=Nc2c(nc(N)[nH]c2=O)NC1 (configuration not stated) [7,8-Dihydrobiopterin] turned out to be 7.18

# compound O=c1[nH]c(=O)c2nccnc2[nH]1 ; its LC retention time = 2.49

Reported LC retention time for CC(C)C(NC(=O)C(N)CCCCN)C(=O)O (configuration not stated) was 9.38

# LC retention time (compound: NC(=O)NCCC(=O)O ) is 5.6

Query CC(=O)NC(CC(=O)O)C(=O)NC(CCC(=O)O)C(=O)O (configuration not stated) yields LC retention time of 8.11

The recorded LC retention time for entry C#CC1(O)CCC2C3CCC4=CC(=O)CCC4C3CCC21CC (configuration not stated) equals 0.99

Lab book: LC retention time of O=C(O)C=Cc1cnc[nH]1 noted as 3.69

Per the record, CC(=O)OCC[C@H](N)C(=O)O has LC retention time of 7.6

The reported LC retention time of the compound Cc1cc2nc[nH]c2cc1C was 1.82

Sure, the documented LC retention time for CC(C)=CC(=O)NCC(=O)O is 2.95

Sample CCCC(C)(COC(N)=O)COC(N)=O [Meprobamate] ; LC retention time observed: 1.25

The recorded LC retention time for entry COc1ccc(-c2cc(=O)c3c(OC)c(OC)c(OC)c(OC)c3o2)cc1OC equals 1

Quick note, LC retention time for CC12CCC(=O)C=C1CCC1C2CCC2(C)C1CCC2(C)O (configuration not stated) landed at 1.04

The measured LC retention time associated with Nc1ccn(C2CC(O)C(CO)O2)c(=O)n1 (configuration not stated) reads 5.87

compound OCCOCCN1CCN(C2=Nc3ccccc3Sc3ccccc32)CC1 , LC retention time observed: 2.54

So for c1cncc(C2CCCN2)c1 (configuration not stated) , the logged LC retention time turned out to be 5.98

The compound listed as CSc1nc2cc(Oc3cccc(Cl)c3Cl)c(Cl)cc2[nH]1 shows LC retention time equal to 1.01

The recorded LC retention time for CCCCCCCCCCCCCCCC(O)C(N)CO (configuration not stated) [Dihydrosphingosine] is 4.47

The reported value for CCC1=C(C)CN(C(=O)NCCc2ccc(S(=O)(=O)NC(=O)NC3CCC(C)CC3)cc2)C1=O (configuration not stated) [Glimepiride] in terms of LC retention time is 1.05

What the record says about COc1cc2nc(N3CCN(C(=O)C4CCCO4)CC3)nc(N)c2cc1OC (configuration not stated) : LC retention time is 4.66

Lab note: measured LC retention time of CC(=O)OCC(CCn1cnc2cnc(N)nc21)COC(C)=O was 1.38

Looking up C[N+](C)(C)CCCC(=O)O , I see its LC retention time listed as 7.66
